B1: CPEB3 Ribozyme (parent)
chain: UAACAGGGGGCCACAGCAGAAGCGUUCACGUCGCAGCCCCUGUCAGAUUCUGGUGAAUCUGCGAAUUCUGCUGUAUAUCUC

Variants of: B1
Experiment: self-cleavage, relative activity (ratio to wild type); higher = more cleavage; in vitro, sequencing
reported-property: self-cleavage
Write no unit; give the number alone.

mutant_code="C23U U54G" reported_property=self-cleavage observed_result=0.31
mutant_code="G10C U67C" reported_property=self-cleavage observed_result=0.37
mutant_code="G70C U78A" reported_property=self-cleavage observed_result=0.17
mutant_code="U48A A65G" reported_property=self-cleavage observed_result=0.4
mutant_code="A28G A35C" reported_property=self-cleavage observed_result=0.53

Now, please, on to the next variant.
Qu. // fetch self-cleavage given entry C23A U25A
Ans. 0.27
